Taken from PubChem BioAssay (NCI).

# growth annotations
Test system: UACC-62 melanoma
protocol.notes: NCI-60 one-dose screen, 48 h (100 = growth as untreated, 0 = no growth, -100 = all killed)
stated.conditions: 10 µM unless noted
This is part of a sample that, as a whole, favours compounds with a hit. Of some 83,000 tested, about 20% had one in any assay.
Your answer is read as %, so omit the unit and give the number.

C/C(=N\OC(=O)Nc1ccccc1)c1ccccc1 = 94.2
CC(=O)c1cc(C(=O)c2ccc3c(c2)Sc2ccccc2N3)c2c(C)cccn12 = 26.3
CCOC(=O)c1ccc(NCCC(=O)O)cc1 = 102
ClCc1cccc(CSc2ncnc3c2ncn3Cc2cccc(CCl)c2)c1 = 6.23
Cc1nc([C@H]2CC[C@H]3[C@@H]4CCC5=CC(=O)CC[C@]5(C)[C@H]4CC[C@]23C)cs1 = 59.4

We now examine a further molecule.
Task item: Value wanted: growth (UACC-62 melanoma) of entry C/C(CC(=O)NNc1ccc([N+](=O)[O-])cc1)=N\Nc1ccc([N+](=O)[O-])cc1
Reply: 9.12

###

Tested on: COLO 205 colon
protocol.notes: NCI-60 one-dose screen, 48 h
stated.conditions: 10 µM unless noted
Method: Cells are grown in 96 well plates and exposed to the test compound for 48 hours. Compounds are tested at a single concentration, which is 10^-5 M for most compounds. The reported endpoint is percent growth (GI% or GIPRCNT), where numbers from 0 - 100% represent growth inhibition, and numbers from -100% - 0 represent cell death. For example, a value of 40 represents 60% growth inhibition. A value of 0 means no net growth occurred over the course of the experiment. […]
About 83,000 compounds went through this panel and 20% of them were active in at least one assay; those are over-represented in the sample as a whole. Calls of active or inactive are those of the source. The calls were made as follows: active = growth percent below 10; inactive = the rest.
Pick one: active, inactive

CC(=O)c1cc(C(=O)c2ccc3c(c2)Sc2ccccc2N3)c2c(C)cccn12 = active
O=C1OCC2=C1C(c1ccc(Cl)c(Cl)c1)c1cc3c(cc1N2CCO)CCC3 (stereo unspecified) = active

Task item: Please indicate how the test categorized COc1ccc(NC(=O)/C=C/c2ccc(Cl)c(Cl)c2)cn1 .
Reply: inactive

Task item: Please indicate how the test categorized CCCN(CCC)CC(O)COc1ccccc1C(=O)Nc1ccccc1 (stereo unspecified) .
Reply: inactive

Task item: Please indicate how the test categorized Cc1ccc(O)c(Cc2ccccc2)c1 .
Reply: inactive

Task item: Please indicate how the test categorized COc1cc(C2Nc3ccccc3S2)cc(CN2CCOCC2)c1O (stereo unspecified) .
Reply: inactive

###

Tested on: SN12C renal
protocol.notes: NCI-60 one-dose screen, 48 h (100 = growth as untreated, 0 = no growth, -100 = all killed)
stated.conditions: 10 µM unless noted
Compounds without any hit were thinned out: in the full panel of roughly 83,000, 20% have a hit.
// returns not satisfied unless growth is strictly below 80%, in which case satisfied

Example results:
O=c1cc(-c2ccc3c(c2)OCCO3)oc2cc(Cl)ccc12 = satisfied
COc1cc2nccc(Oc3ccc(NC(=O)C4(C(=O)Nc5ccc(F)cc5)CC4)cc3)c2cc1Oc1ccc(N)cn1 = satisfied
N#Cc1c(N)n(C2OC(CO)C(O)C2O)c2ncnc(N)c12 (stereo not drawn) = satisfied
COc1ccc(NC(=O)/C=C/c2ccc(Cl)c(Cl)c2)cn1 = not satisfied
Nc1c(C(=O)c2ccc(Br)cc2)sc2nc3c(cc12)CCCC3 = not satisfied

Task item: Given the entry Cc1ccc(NC(=O)c2nc(S(C)(=O)=O)oc2-c2ccc(F)cc2)cc1Nc1ccc2ncn(C)c(=O)c2c1 , would its reported growth be below 80%?
Reply: satisfied

Task item: Given the entry Cc1ccc2nc(CN(CCN(Cc3nc4ccc(C)cc4[nH]3)Cc3nc4ccc(C)cc4[nH]3)Cc3nc4ccc(C)cc4[nH]3)[nH]c2c1 , would its reported growth be below 80%?
Reply: satisfied

Task item: Given the entry O=C(N=Nc1c(Cl)c(O)c2ccccc2c1O)C(=O)Nc1cccc(C(F)(F)F)c1 , would its reported growth be below 80%?
Reply: satisfied

Task item: Given the entry c1ccc2c(c1)cnc1ccccc12 , would its reported growth be below 80%?
Reply: not satisfied

###

System: EKVX NSCLC
protocol.notes: NCI-60 one-dose screen, 48 h
stated.conditions: 10 µM unless noted
About 83,000 compounds went through this panel and 20% of them were active in at least one assay; those are over-represented in the sample as a whole. Calls of active or inactive are those of the source. The calls were made as follows: active = growth percent below 10; inactive = the rest.
Pick one: YES = active, NO = inactive

Task item: Please indicate how the test categorized Nc1ccc(C(OC(=O)c2cc3ccccc3c(Cc3c(O)c(C(=O)OC(c4ccc(N)cc4)(c4ccc(N)cc4)c4ccc(N)cc4)cc4ccccc34)c2O)(c2ccc(N)cc2)c2ccc(N)cc2)cc1 .
Reply: YES

Task item: Please indicate how the test categorized Fc1ccc2nc(-c3ccc(-c4noc(-c5ccc(Cl)cc5)n4)cc3)[nH]c2c1 .
Reply: NO

Task item: Please indicate how the test categorized O=C(CCCCCCc1nc2ccc(Br)cc2[nH]1)NO .
Reply: NO

Task item: Please indicate how the test categorized C=CCn1c(C)nc2cc(Nc3nc(Nc4ccc5nc(C)n(CC=C)c5c4)nc4ccccc34)ccc21 .
Reply: NO

Task item: Please indicate how the test categorized COc1cc2c(cc1OCCCOc1cc3c(cc1OC)C(=O)N1CCC[C@H]1C=N3)C=CC(C)(C)O2 .
Reply: NO

###

Tested on: LOX IMVI melanoma
protocol.notes: NCI-60 one-dose screen, 48 h
stated.conditions: 10 µM unless noted
Experimental: Growth inhibition of the LOX IMVI human tumor cell line is measured as a screen for anti-cancer activity. Cells are grown in 96 well plates and exposed to the test compound for 48 hours. Compounds are tested at a single concentration, which is 10^-5 M for most compounds. The reported endpoint is percent growth (GI% or GIPRCNT), where numbers from 0 - 100% represent growth inhibition, and numbers from -100% - 0 represent cell death. For example, a value of 40 represents 60% growth inhibition. […]
This is part of a sample that, as a whole, favours compounds with a hit. Of some 83,000 tested, about 20% had one in any assay. The source made the active and inactive calls. How the source made its calls: active means growth percent below 10; inactive means the rest.
Pick one: T (active), F (inactive)

CCCCCCCCCCCCCCC(C(=O)OCC)C(=O)OCC = F
C#CC[C@@H]1C[C@]2(C)[C@H]3CC=C4[C@H]5CC(C)(C)CC[C@]5(C(=O)NCCCCN)CC[C@@]4(C)[C@]3(C)CC[C@H]2C(C)(C)[C@H]1OC(C)=O = T
C=CCn1c(SCC(=O)Nc2ccc(/C(C)=N\O)cc2)nnc1-c1cc(-c2ccc(Cl)cc2)nc2ccccc12 = T
CSC(=S)N/N=C(\C)c1ccccn1 = F

Could you now look at the following molecule, please?
Task item: Please indicate how the test categorized NC(=S)N/N=C(/c1cccs1)C1CC1 .
Reply: F

###

# growth annotations
Test system: HCC-2998 colon
protocol.notes: NCI-60 one-dose screen, 48 h (100 = growth as untreated, 0 = no growth, -100 = all killed)
stated.conditions: 10 µM unless noted
The panel holds about 83,000 compounds, 20% with a hit somewhere; the sample as a whole holds those more often.
Your answer is read as %, so omit the unit and give the number.

CCc1ccc(-c2ccc(NC3CCCCCC3)nn2)cc1S(N)(=O)=O = 102
CCOCC(O)(c1ccc(Cl)cc1)c1ccc(Cl)cc1 = 109
CN1CCN(Cc2ccc(NC(=O)c3ccc(C#N)c(C#Cc4cnc(N)c5ncccc45)c3)cc2C(F)(F)F)CC1 = 112

Task item: Look at this molecule and give its reported growth. COc1ccc(/C=C/C(=O)c2ccc(NC(=O)CSc3nnc(-c4ccc(Cl)cc4)n3-c3ccccc3)cc2)cc1
Reply: 103

Task item: Look at this molecule and give its reported growth. CCOc1cccc(/C=N/NC(=O)c2ccc(Nc3ccnc(C(F)(F)F)c3)cc2)c1O
Reply: 35.3

Task item: Look at this molecule and give its reported growth. COc1ccc([C@@H]2[C@@H](Cl)C(=O)N2c2cc(OC)c(OC)c(OC)c2)cc1C
Reply: 19.5

Task item: Look at this molecule and give its reported growth. CCN(CC)CCNc1c(C)cc(CO)c(Cl)c1C
Reply: 107

Task item: Look at this molecule and give its reported growth. Oc1c(-c2cc(C(F)(F)F)[nH]n2)cc(Cl)c(OCc2ccc(Cl)cc2)c1-c1ccc(Cl)c(C(F)(F)F)c1
Reply: 12.7

Task item: Look at this molecule and give its reported growth. CNC(=O)c1ccccc1Sc1ccc2c(/C=C/c3ccccn3)n[nH]c2c1
Reply: 68.9

Task item: Look at this molecule and give its reported growth. COc1ccc2[nH]cc(/C=C3\C(=O)Nc4ccccc43)c2c1
Reply: 36

###

# growth annotations
Tested on: A498 renal
protocol.notes: NCI-60 one-dose screen, 48 h (100 = growth as untreated, 0 = no growth, -100 = all killed)
stated.conditions: 10 µM unless noted
Method: Growth inhibition of the A498 human tumor cell line is measured as a screen for anti-cancer activity. Cells are grown in 96 well plates and exposed to the test compound for 48 hours. Compounds are tested at a single concentration, which is 10^-5 M for most compounds. The reported endpoint is percent growth (GI% or GIPRCNT), where numbers from 0 - 100% represent growth inhibition, and numbers from -100% - 0 represent cell death. For example, a value of 40 represents 60% growth inhibition. […]
The panel holds about 83,000 compounds, 20% with a hit somewhere; the sample as a whole holds those more often.
Your answer is read as %, so omit the unit and give the number.

Solved entries (count: 2):
CCc1oc2ccccc2c1C(=O)c1cc(I)c(O)c(I)c1 = 98.2
C=CCn1c(SCC(=O)Nc2ccc(C(=O)/C=C/c3ccccc3)cc2)nnc1-c1ccc(OC)c(OC)c1 = 75

We now examine a further compound.
Task item: Look at this compound and give its reported growth. COc1cc(/C=C/c2ccc3c(Br)cc(Br)c(O)c3n2)ccc1O
Reply: -4.9
